Hello, the source for this data is ChEMBL document CHEMBL2440116, in case you need it.

Could you please report measured selectivity ratio for the items listed next?
Experiment: Therapeutic index, ratio of EC50 for african green monkey Vero cells to MIC for Mycobacterium tuberculosis H37Rv
Type: cell-based
Details: read-out: TI
Reply briefly: the number, and no unit.

Name the recorded selectivity ratio of the item CC(=O)c1cccc(C(=O)Nc2nc(-c3ccccn3)cs2)c1 in your answer. 4

Supply selectivity ratio value. Item: O=C(Nc1nc(-c2ccccn2)cs1)c1cccc(F)c1 3

Quick one: give measured selectivity ratio for COc1ccccc1C(=O)Nc1nc(-c2ccccn2)cs1 7

Recall and state the measured selectivity ratio for O=C(Nc1nc(-c2ccccn2)cs1)c1cccc(F)c1F . 18

For the compound O=C(Nc1nc(-c2ccccn2)cs1)c1cc(F)cc(F)c1 , give its reported selectivity ratio. 8

Retrieve selectivity ratio measured for O=C(Nc1nc(-c2ccccn2)cs1)c1c(F)cccc1F and print it. 4

// fetch selectivity ratio given entry O=C(Nc1nc(-c2ccccn2)cs1)c1ccccn1 0.9

Give selectivity ratio for O=C(Nc1nc(-c2ccccn2)cs1)c1cccc(OCc2ccccc2)c1 32

Given Cc1cccc(C(=O)Nc2nc(-c3ccccn3)cs2)c1 , respond with its selectivity ratio. 11

Please supply the value of reported selectivity ratio for the item O=C(Nc1nc(-c2ccccn2)cs1)c1ccccc1Cl 1

Fill in selectivity ratio for record COc1ccc(C(=O)Nc2nc(-c3ccccn3)cs2)cc1 24

Report selectivity ratio for COc1cccc(C(=O)Nc2nc(-c3ccccn3)cs2)c1 7

Provide measured selectivity ratio value, entry: O=C(Nc1nc(-c2ccccn2)cs1)c1ccc(F)cc1F 9

Query selectivity ratio for O=C(Nc1nc(-c2ccccn2)cs1)c1cc(F)ccc1F 8

Fill in selectivity ratio for record Cc1ccccc1C(=O)Nc1nc(-c2ccccn2)cs1 16

In one line, give reported selectivity ratio of the entry CC(=O)c1ccccc1C(=O)Nc1nc(-c2ccccn2)cs1 . 7

For the compound Cc1ccc(C(=O)Nc2nc(-c3ccccn3)cs2)cc1 , give its reported selectivity ratio. 27

Report measured selectivity ratio; entry is O=C(Nc1nc(-c2ccccn2)cs1)c1cccnc1Cl 2

Name the recorded selectivity ratio of the item O=C(Nc1nc(-c2ccccn2)cs1)c1cccc(Cl)c1 in your answer. 30

Kindly indicate its recorded selectivity ratio. Item: O=C(Nc1nc(-c2ccccn2)cs1)c1ccccc1 18

Retrieve selectivity ratio measured for O=C(Nc1nc(-c2ccccn2)cs1)c1ccc(OCc2ccccc2)cc1 and print it. 6
